MEASUREMENT TARGET: HLA-A*26:01
MEASUREMENT NOTES: IEDB peptide-MHC binding, purified MHC/direct/fluorescence; filed as Kd, often an IC50 or EC50 that approximates it; bounds were set here for any values at or beyond the usual limits of such assays
TEST CONTEXT: source organism: Variola virus
pKd: −log10 of the molar value.
RECORDED ENDPOINT: pKd

SEQUENCE CONTENT | RECORDED ENDPOINT | OBSERVED
TESDAIRTL | pKd | ≤ 4.70

----------
MEASUREMENT TARGET: HLA-A*24:02
MEASUREMENT NOTES: IEDB peptide-MHC binding, purified MHC/competitive/fluorescence; bounds were set here for any values at or beyond the usual limits of such assays
TEST CONTEXT: source organism: West Nile virus
pIC50: −log10 of the molar value.
RECORDED ENDPOINT: pIC50

SEQUENCE CONTENT | OBSERVED
HYAYMVPGW | 6.66

----------
MEASUREMENT TARGET: HLA-B*46:01
MEASUREMENT NOTES: IEDB peptide-MHC binding, purified MHC/competitive/fluorescence; filed as Kd, often an IC50 or EC50 that approximates it; bounds were set here for any values at or beyond the usual limits of such assays
TEST CONTEXT: source organism: Vibrio vulnificus CMCP6
pKd: −log10 of the molar value.
RECORDED ENDPOINT: pKd

SEQUENCE CONTENT | OBSERVED
LEMNDAPTA | ≤ 4.70

----------
MEASUREMENT TARGET: HLA-B*15:01
MEASUREMENT NOTES: IEDB peptide-MHC binding, purified MHC/competitive/fluorescence; bounds were set here for any values at or beyond the usual limits of such assays
TEST CONTEXT: source organism: Vaccinia virus
pIC50: −log10 of the molar value.

SEQUENCE CONTENT | pIC50
CKSRNTTPM | ≤ 3.66
LRIQSLMEM | ≤ 3.18

----------
In this section we review reported Kd values for a set of sequences.
MEASUREMENT TARGET: HLA-A*02:01
MEASUREMENT NOTES: IEDB peptide-MHC binding, purified MHC/competitive/radioactivity; filed as Kd, often an IC50 or EC50 that approximates it; bounds were set here for any values at or beyond the usual limits of such assays
TEST CONTEXT: source organism: Dengue virus 4 Philippines/H241/1956
RECORDED ENDPOINT: Kd (nM)

SEQUENCE CONTENT | OBSERVED
RTIMAVLFVV | 1.82
FLEFEALGFL | 28.1

----------
MEASUREMENT TARGET: HLA-A*23:01
MEASUREMENT NOTES: IEDB peptide-MHC binding, purified MHC/competitive/radioactivity; filed as Kd, often an IC50 or EC50 that approximates it; bounds were set here for any values at or beyond the usual limits of such assays
TEST CONTEXT: source organism: Mammarenavirus whitewaterense
In this section we review reported Kd values for a set of sequences.

SEQUENCE CONTENT | Kd
TKHPSLNII | ≥ 53.1 µM
HDHHFTPQI | ≥ 45.3 µM

----------
MEASUREMENT TARGET: HLA-A*02:11
MEASUREMENT NOTES: IEDB peptide-MHC binding, purified MHC/direct/fluorescence; filed as Kd, often an IC50 or EC50 that approximates it; bounds were set here for any values at or beyond the usual limits of such assays
TEST CONTEXT: source organism: Salmonella enterica subsp. enterica serovar Typhimurium str. LT2
pKd: −log10 of the molar value.

SEQUENCE CONTENT | pKd
FKYDSTKPL | ≤ 4.70
